From: patent US20240117334A1

Target: Human Factor B (human) (UniProt P00751)
Sequence (P00751 26-764 limits assumed): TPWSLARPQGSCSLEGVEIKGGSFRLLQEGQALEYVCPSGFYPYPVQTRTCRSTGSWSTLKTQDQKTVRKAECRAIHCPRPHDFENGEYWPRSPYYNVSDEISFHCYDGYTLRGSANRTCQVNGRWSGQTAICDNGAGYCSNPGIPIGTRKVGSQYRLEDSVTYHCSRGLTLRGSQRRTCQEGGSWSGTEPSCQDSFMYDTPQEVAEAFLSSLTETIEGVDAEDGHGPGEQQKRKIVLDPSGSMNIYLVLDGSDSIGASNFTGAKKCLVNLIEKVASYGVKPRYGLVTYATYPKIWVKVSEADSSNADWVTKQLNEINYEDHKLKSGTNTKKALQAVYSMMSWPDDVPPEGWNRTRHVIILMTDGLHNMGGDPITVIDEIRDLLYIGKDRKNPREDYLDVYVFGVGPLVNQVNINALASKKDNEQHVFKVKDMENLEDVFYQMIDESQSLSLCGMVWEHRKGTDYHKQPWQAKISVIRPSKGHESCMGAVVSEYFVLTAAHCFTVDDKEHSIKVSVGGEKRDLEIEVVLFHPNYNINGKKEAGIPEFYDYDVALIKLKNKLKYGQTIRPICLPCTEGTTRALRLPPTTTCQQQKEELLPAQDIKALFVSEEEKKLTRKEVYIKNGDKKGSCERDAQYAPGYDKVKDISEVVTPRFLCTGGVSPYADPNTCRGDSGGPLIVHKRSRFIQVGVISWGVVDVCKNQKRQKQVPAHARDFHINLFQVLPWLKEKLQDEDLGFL
Assay: cell-based or functional assay
Measured Parameter: fB Cleavage EC50 (nM)
Give the value, in units of nM, as a plain number.

Binder: chymase C22S/P38Q/K40V/F41R/L99H/V138I/F173M/D175N/A190S/V213A/S218T/A226R (enzyme) IIGGTESKPHSRPYMAYLEIVTSNGQSVRCGGFLIRRNFVLTAAHCAGRSITVTLGAHNITEEEDTWQKLEVIKQFRHPKYNTSTHHHDIMLLKLKEKASLTLAVGTLPFPSQFNFVPPGRMCRIAGWGRTGVLKPGSDTLQEVKLRLMDPQACSHMRNFDHNLQLCVGNPRKTKSSFKGDSGGPLLCAGVAQGIASYGRTDAKPPRVFTRISHYRPWINQILQAN
Measured Parameter: fB Cleavage EC50
Units Text: nM
Readout Value: 639
//
Binder: chymase C22S/V138A/G145D/S189T/A190S/A226R (enzyme) IIGGTESKPHSRPYMAYLEIVTSNGPSKFCGGFLIRRNFVLTAAHCAGRSITVTLGAHNITEEEDTWQKLEVIKQFRHPKYNTSTLHHDIMLLKLKEKASLTLAVGTLPFPSQFNFVPPGRMCRAAGWGRTDVLKPGSDTLQEVKLRLMDPQACSHFRDFDHNLQLCVGNPRKTKTSFKGDSGGPLLCAGVAQGIVSYGRSDAKPPRVFTRISHYRPWINQILQAN
Measured Parameter: fB Cleavage EC50
Units Text: nM
Readout Value: 3810

Now consider a different binder.
Task item: What value of fB Cleavage EC50 has been recorded for this entry: chymase C22S/K40M/F41R/L99H/F173Y/D175W/S218L/A226R (enzyme) IIGGTESKPHSRPYMAYLEIVTSNGPSMRCGGFLIRRNFVLTAAHCAGRSITVTLGAHNITEEEDTWQKLEVIKQFRHPKYNTSTHHHDIMLLKLKEKASLTLAVGTLPFPSQFNFVPPGRMCRVAGWGRTGVLKPGSDTLQEVKLRLMDPQACSHYRWFDHNLQLCVGNPRKTKSAFKGDSGGPLLCAGVAQGIVSYGRLDAKPPRVFTRISHYRPWINQILQAN
Reply: 181
